Each entry below carries its recorded fold (off-rate vs DLLBII101G08).
# measured-target: T1, recombinant mouse DLL4 (C-terminally His-tagged extracellular domain, R&D Systems) (mouse, UniProt Q9JI71 27-532)
# T1 construct: extracellular domain; also called rmDLL4; mDLL4
# T1 sequence (Q9JI71 27-532): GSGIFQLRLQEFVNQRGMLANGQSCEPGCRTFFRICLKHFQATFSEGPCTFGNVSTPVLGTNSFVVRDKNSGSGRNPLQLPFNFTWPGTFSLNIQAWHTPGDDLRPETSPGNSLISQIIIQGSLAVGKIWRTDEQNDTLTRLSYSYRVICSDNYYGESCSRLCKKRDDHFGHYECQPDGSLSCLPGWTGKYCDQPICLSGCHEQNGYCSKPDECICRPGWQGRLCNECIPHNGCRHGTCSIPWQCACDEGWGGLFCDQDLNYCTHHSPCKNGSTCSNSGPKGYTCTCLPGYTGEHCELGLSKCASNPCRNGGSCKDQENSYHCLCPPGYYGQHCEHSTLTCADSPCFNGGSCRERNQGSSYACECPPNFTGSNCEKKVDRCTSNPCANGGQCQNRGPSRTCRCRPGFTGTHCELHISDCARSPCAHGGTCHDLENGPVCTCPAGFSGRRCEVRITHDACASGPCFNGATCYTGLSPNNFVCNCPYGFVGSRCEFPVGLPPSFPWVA
# assay-method-text: ProteOn off-rate screen, periplasmic extract, coated mouse DLL4
Give your result in fold as a bare value.

Worked examples follow.
DLLBII130B04 (VHH) VHH: EVQLVESGGGLVQAGGSLRLSCAASGRTFSSYAMAWFRQAPGKEREYVAAIRWSGGTAYYADSVQGRFTISRDNAKNTVYLQMNSLKPEDTAVYYCANRAPDTRLRPYLYDHWGQGTQVTVSS	17
DLLBII129E11 (VHH, not shown: small tags and cut ends) VHH: EVQLVESGGGLVQAGGSLRLSCAASGRTFSSYAMAWYRQAPGKEREYVAAIRWSGGTAYYADSVQGRFTISRDNAKNTVYLQMNSLKPEDTAVYYCANRAPDTRLRPYLYDYWGQGTQVTVSS	26
DLLBII130D06 (VHH) VHH: EVQLVESGGGLVQAGGSLRLSCSASGRTFSSYAMAWYRQAPGKEREYVAAIRWSGETAYYADSVQGRFTISRDNAKNTVYLQMNSLKPEDTAVYYCANRAPDTRLEPYLYDHWGQGTQVTVSS	16

Answer with reported fold (off-rate vs DLLBII101G08) of DLLBII130E03 (VHH) VHH: EVQLVESGGGLVQAGGSLRLSCAASGRTFSSYAMAWYRQAPGKEREYVAAIRWSGGTAYYADSVQGRFTISRDNAKNTVYLQMNSLKPEDTAVYYCANRAPDTRLEPYEYDHWGQGTQVTVSS
18

Identify fold (off-rate vs DLLBII101G08) associated with the binder DLLBII129H05 (VHH) VHH: EVQLVESGGGLVQAGGSLRLSCAASGRTFSSYAMAWYRLAPGKEREYVAAIRWSGGTAYYADSVQGRFTISRDNAKNTVYLQMNSLKPEDTAVYYCANRAPDTRLGPYLYDYWGQGTQVTVSS
19

Give a short answer stating reported fold (off-rate vs DLLBII101G08) for DLLBII129G10 (VHH) VHH: EVQLVESGGGLVQAGGSLRLSCAASGRTFSSYAMAWYRQAPGKEREYVAAIRWSGGTAYYADSVQSRFTISRDNAKNTVYLQMNSLKPEDTAVYYCANRAPDTRLEPYEYDHWGQGTQVTVSS .
26

Give the reported fold (off-rate vs DLLBII101G08) for this binder. DLLBII130B03 (VHH, not shown: small tags and cut ends) VHH: EVQLVESGGGLVQAGGSLRLSCAASGRTFSSYAMAWYRQAPGKEREYVAAIRWSGGTAYYADSVQGRFTISRDNAKNTVYLQMNSLKPEDTAVYYCANRAPDTRLAPYLYDYWGQGTQVTVSS
20

Read off the recorded fold (off-rate vs DLLBII101G08) for DLLBII130F06 (VHH, not shown: small tags and cut ends) VHH: EVQLVESGGGLVQAGGSLRLSCAASGRTFSSYAMAWYRQAPGKEREYVAAIRWSGGTAYYADSVQGRFTISRDNAKNTVYLQMNSLKPEDTAVYYCANRAPDTRLAPYEYDYWGQGTQVTVSS
19

meta.source: patent US20140120095A1
